System: THP-1 Lucia ISG cells
measurement_protocol: ISG-LUC activation assay (ISRE-luciferase assay)
Format: cell-based
details: Homo sapiens, THP1-Lucia ISG; THP-1 Lucia ISG reporter cells, 24 hours; score based upon potency and efficacy relative to reference compound; read-out: ISG-LUC activation assay score
parameter: EC50

// worked examples, EC50 included
| molecule | parameter | readout_value |
| --- | --- | --- |
| C#Cc1cc(NC(=O)c2cc(N)c3nnnn3n2)c(C(=O)OC)cc1Cl [Compound 34] | EC50 | < 900 nM |
| COC(=O)c1cc(C#N)c(Cl)cc1NC(=O)c1cnc2nc[nH]c2c1 [Compound 72] | EC50 | > 20000 nM |

GET /values?readout=EC50&item= C#Cc1cc(NC(=O)c2cc(NC(=O)OC(C)(C)C)c3nnnn3n2)c(C(=O)OC)cc1F [Compound 70]
> 1000 nM

GET /values?readout=EC50&item= O=C(O)c1cc(Cl)c(Cl)cc1NC(=O)c1cccn2cnnc12 [Compound 88]
> 20000 nM

GET /values?readout=EC50&item= CC#Cc1cc(NC(=O)c2cc(N)c3nnnn3n2)c(C(=O)OC)cc1F [Compound 39]
> 1000 nM

GET /values?readout=EC50&item= C#Cc1cc(NC(=O)c2ccc3c(-c4nnc[nH]4)nnn3n2)c(C(=O)O)cc1F [Compound 61]
> 1000 nM

GET /values?readout=EC50&item= COC(=O)c1cc(F)c(F)cc1NC(=O)c1cc2ncccn2n1 [Compound 85]
> 20000 nM

----------
Test system: THP-1 Lucia ISG cells
measurement_protocol: ISG-LUC activation assay (ISRE-luciferase assay)
Format: cell-based
details: Homo sapiens, THP1-Lucia ISG; THP-1 Lucia ISG reporter cells, 24 hours; score based upon potency and efficacy relative to reference compound; read-out: ISG-LUC activation assay score
Each item that follows carries a reported EC50.

GET /values?readout=EC50&item= C#Cc1cc(NC(=O)c2cc(N)n3c(C#N)cnc3n2)c(C(=O)O)cc1F
> 20000 nM

GET /values?readout=EC50&item= Nc1cc(C(=O)Nc2cc(Cl)c(Cl)cc2C(=O)O)nn2nncc12
> 1000 nM

GET /values?readout=EC50&item= C#Cc1cc(NC(=O)c2ccc3c(C(N)=O)nnn3n2)c(C(=O)O)cc1F
< 3000 nM

GET /values?readout=EC50&item= C=C(F)c1ccc(C(=O)O)c(NC(=O)c2cc(N)c3nnnn3n2)c1
< 900 nM

GET /values?readout=EC50&item= C#Cc1cc(NC(=O)c2cc(N)nn3nnnc23)c(C(=O)OC)cc1F
< 900 nM

----------
Test system: THP-1 Lucia ISG cells
measurement_protocol: ISG-LUC activation assay (ISRE-luciferase assay)
Assay type: cell-based
details: Homo sapiens, THP1-Lucia ISG, 24 h, read-out: ISG-LUC activation assay score
pEC50: −log10 of the molar value.
parameter: pEC50

GET /values?readout=pEC50&item= C#Cc1cc(NC(=O)c2cc(N)c3nnnn3n2)c(C(=O)O)cc1F [Compound 1]
> 5.52

----------
Test system: THP-1 Lucia ISG cells
measurement_protocol: ISG-LUC activation assay (ISRE-luciferase assay)
Format: cell-based
details: Homo sapiens, THP1-Lucia ISG; THP-1 Lucia ISG reporter cells, 24 hours; score based upon potency and efficacy relative to reference compound; read-out: ISG-LUC activation assay score
Each item that follows carries a reported EC50.

// worked examples, EC50 included
| smiles | tested_on | EC50 |
| --- | --- | --- |
| Nc1cc2nnnn2nc1C(=O)Nc1cc(Cl)c(Cl)cc1C(=O)O | THP-1 Lucia ISG cells | < 3000 nM |
| C/C=C/c1cc(NC(=O)c2cc(N)c3nnnn3n2)c(C(=O)OC)cc1F | THP-1 Lucia ISG cells | < 900 nM |
| COC(=O)c1cc(Cl)c(Cl)cc1NC(=O)c1ccn2c(C#N)cnc2n1 | THP-1 Lucia ISG cells | < 900 nM |

Can you look up EC50 on THP-1 Lucia ISG cells for COC(=O)c1cc(F)c(C)cc1NC(=O)c1cc(N)c2nnnn2n1 ?
< 900 nM

Can you look up EC50 on THP-1 Lucia ISG cells for C#Cc1cc(NC(=O)c2ccn3c(-c4cn[nH]c4)cnc3n2)c(C(=O)OC)cc1F ?
> 1000 nM

Can you look up EC50 on THP-1 Lucia ISG cells for C#Cc1cc(NC(=O)c2cc(N)nn3nnnc23)c(C(=O)O)cc1F ?
> 1000 nM

----------
Test system: THP-1 Lucia ISG cells
measurement_protocol: ISG-LUC activation assay (ISRE-luciferase assay)
Assay type: cell-based
details: Homo sapiens, THP1-Lucia ISG; THP-1 Lucia ISG reporter cells, 24 hours; score based upon potency and efficacy relative to reference compound; read-out: ISG-LUC activation assay score
pEC50: −log10 of the molar value.
Each item that follows carries a reported pEC50.

// worked examples, pEC50 included
| compound | readout_value |
| --- | --- |
| COc1cc(NC(=O)c2cc(NC(=O)OC(C)(C)C)c3nnnn3n2)c(C(=O)O)cc1F [Compound 86] | < 6.00 |
| Nc1cc(C(=O)Nc2cc(Cl)c(Cl)cc2C(=O)O)nn2nnnc12 [Compound 82] | < 6.00 |

GET /values?readout=pEC50&item= C#Cc1cc(NC(=O)c2cc(N)c3ncnn3n2)c(C(=O)O)cc1F [Compound 8]
< 6.00

GET /values?readout=pEC50&item= C#Cc1cc(NC(=O)c2ccn3c(-c4ccncc4)nnc3n2)c(C(=O)O)cc1F [Compound 59]
< 4.70

GET /values?readout=pEC50&item= COc1cc(NC(=O)c2cc(N)c3nnnn3n2)c(C(=O)OC(C)OC(C)=O)cc1F (stereo not shown) [Compound 54]
> 6.05

GET /values?readout=pEC50&item= C#Cc1cc2nc(-c3ccc4nnnn4n3)oc(=O)c2cc1F [Compound 44]
> 6.05

GET /values?readout=pEC50&item= C=Cc1ccc(C(=O)OC)c(NC(=O)c2cc(N)c3nnnn3n2)c1 [Compound 64]
> 6.05

----------
Test system: THP-1 Lucia ISG cells
measurement_protocol: ISG-LUC activation assay (ISRE-luciferase assay)
Format: cell-based
details: Homo sapiens, THP1-Lucia ISG; THP-1 Lucia ISG reporter cells, 24 hours; score based upon potency and efficacy relative to reference compound; read-out: ISG-LUC activation assay score
pEC50: −log10 of the molar value.
parameter: pEC50

GET /values?readout=pEC50&item= COC(=O)c1cc(F)c(F)cc1NC(=O)c1cc2[nH]cnc2cn1 [Compound 69]
> 6.05

GET /values?readout=pEC50&item= COC(=O)c1cc(F)c(OC)cc1NC(=O)c1ccn2c(N)nnc2n1 [Compound 57]
< 4.70

GET /values?readout=pEC50&item= COC(=O)c1cc(F)c(F)cc1NC(=O)c1nc2cnccn2n1 [Compound 80]
< 6.00

GET /values?readout=pEC50&item= COC(=O)c1cc(F)c(F)cc1NC(=O)c1ccc2nnnn2n1 [Compound 71]
< 6.00

GET /values?readout=pEC50&item= COc1cc(NC(=O)c2ccn3c(N)nnc3n2)c(C(=O)O)cc1F [Compound 58]
< 4.70

GET /values?readout=pEC50&item= C#Cc1cc(NC(=O)c2cc(N)c3nnnn3n2)c(C(=O)O)cc1C#N [Compound 36]
> 5.52

GET /values?readout=pEC50&item= COc1cc(NC(=O)c2cc(N)c3nnnn3n2)c(C(=O)O)cc1Cl [Compound 84]
< 6.00

GET /values?readout=pEC50&item= O=C(Nc1cc(F)c(F)cc1C(=O)O)c1cc2[nH]cnc2cn1 [Compound 78]
< 6.00

----------
System: THP-1 Lucia ISG cells
measurement_protocol: ISG-LUC activation assay (ISRE-luciferase assay)
Assay type: cell-based
details: Homo sapiens, THP1-Lucia ISG; THP-1 Lucia ISG reporter cells, 24 hours; score based upon potency and efficacy relative to reference compound; read-out: ISG-LUC activation assay score
parameter: EC50

// worked examples, EC50 included
| smiles | tested_on | EC50 |
| --- | --- | --- |
| C#Cc1cc(NC(=O)c2cc(N)n3ccnc3n2)c(C(=O)O)cc1F | THP-1 Lucia ISG cells | > 1 µM |
| COC(=O)c1cc(Cl)c(Cl)cc1NC(=O)c1cccn2cnnc12 | THP-1 Lucia ISG cells | > 1 µM |
| Nc1cc(C(=O)Nc2cc(C3CC3)ccc2C(=O)O)nn2nnnc12 | THP-1 Lucia ISG cells | > 20 µM |

Query compound follows.
Can you look up EC50 on THP-1 Lucia ISG cells for C#Cc1cc(NC(=O)c2ccn3nc(N)nc3n2)c(C(=O)O)cc1F ?
> 20 µM

----------
Each item that follows carries a reported pEC50.
Test system: THP-1 Lucia ISG cells
measurement_protocol: ISG-LUC activation assay (ISRE-luciferase assay)
Type: cell-based
details: Homo sapiens, THP1-Lucia ISG; THP-1 Lucia ISG reporter cells, 24 hours; score based upon potency and efficacy relative to reference compound; read-out: ISG-LUC activation assay score
pEC50: −log10 of the molar value.

| smiles | pEC50 |
| --- | --- |
| COc1cc(NC(=O)c2ccc3c(ncn3C)n2)c(C(=O)O)cc1F | < 4.70 |

GET /values?readout=pEC50&item= C#Cc1cc(NC(=O)c2ccc3nnnn3n2)c(C(=O)OC)cc1F
> 6.05

GET /values?readout=pEC50&item= COC(=O)c1cc(F)c(F)cc1NC(=O)c1ccn2c(C#N)cnc2n1
< 6.00

GET /values?readout=pEC50&item= C#Cc1cc(NC(=O)c2cc(N)c3nnnn3n2)c(C(=O)O)cc1Cl
> 5.52

GET /values?readout=pEC50&item= C=Cc1cc(NC(=O)c2cc(N)c3nnnn3n2)c(C(=O)O)cc1F
< 6.00

GET /values?readout=pEC50&item= COc1cc(NC(=O)c2cc(N)c3nnnn3n2)c(C(=O)OC(C)C)cc1F
< 6.00

GET /values?readout=pEC50&item= C#Cc1cc(NC(=O)c2cc(N)c3[nH]c(C4CC4)nc3n2)c(C(=O)OC)cc1F
< 4.70

GET /values?readout=pEC50&item= COC(=O)c1sc(C)cc1NC(=O)c1cc(N)c2nnnn2n1
< 6.00

GET /values?readout=pEC50&item= O=C(Nc1cc(F)c(F)cc1C(=O)O)c1ccc2nnnn2n1
< 6.00

GET /values?readout=pEC50&item= COC(=O)c1cc(Cl)c(Cl)cc1NC(=O)c1nc2nc(O)ccn2n1
< 6.00

GET /values?readout=pEC50&item= COc1cc(NC(=O)c2nc3ccc(C(N)=O)nc3[nH]2)c(C(=O)O)cc1F
< 4.70

GET /values?readout=pEC50&item= C=Cc1ccc(C(=O)O)c(NC(=O)c2cc(N)c3nnnn3n2)c1
< 6.00

GET /values?readout=pEC50&item= C#Cc1ccc(C(=O)O)c(NC(=O)c2cc(N)c3nnnn3n2)c1
< 6.00

GET /values?readout=pEC50&item= COC(=O)c1cc(Cl)c(Cl)cc1NC(=O)c1nc2n(n1)CCC(=O)N2
< 6.00
